Measured MIC accompanies every entry in the list below.
Test system: carbapenemase producing K. pneumoniae
Experiment: MIC by broth micro-dilution (CLSI), carbapenemase producing K. pneumoniae
Assay type: cell-based, Klebsiella pneumoniae
Settings: Klebsiella pneumoniae, ATCCBAA1705, KPC-2 K. pneumoniae ATCC BAA-1705; read-out: MIC

compound | system_name | units_label | MIC
CC(C)OC(=O)N[C@H](C)[C@H]1C(=O)N2C(C(=O)O)=C(S[C@@H]3CN[C@H](C(=O)N(C)C)C3)[C@H](C)[C@H]12 | carbapenemase producing K. pneumoniae | µg/mL | 32
CNCC(=O)N[C@H](C)[C@H]1C(=O)N2C(C(=O)O)=C(S[C@@H]3CN[C@H](C(=O)N4C[C@@H](O)[C@H](NC(=N)N)C4)C3)[C@H](C)[C@H]12 | carbapenemase producing K. pneumoniae | µg/mL | 4
CNCC(=O)N[C@H](C)[C@H]1C(=O)N2C(C(=O)O)=C(S[C@@H]3CN[C@H](C(=O)N4CC[C@H](F)C4)C3)[C@H](C)[C@H]12 | carbapenemase producing K. pneumoniae | µg/mL | 16
C[C@@H](NC(=O)Cn1cnnn1)[C@H]1C(=O)N2C(C(=O)O)=C(S[C@@H]3CN[C@H](CNC(=N)N)C3)[C@H](C)[C@H]12 | carbapenemase producing K. pneumoniae | µg/mL | 2
C[C@@H](NC(=O)C(F)F)[C@H]1C(=O)N2C(C(=O)O)=C(S[C@@H]3CN[C@H](C(=O)N4C[C@H](O)[C@@H](O)C4)C3)[C@H](C)[C@H]12 | carbapenemase producing K. pneumoniae | µg/mL | 4
C[C@@H](NC(=O)Cn1cnnn1)[C@H]1C(=O)N2C(C(=O)O)=C(S[C@@H]3CNC(CNC(=O)[C@H]4CSCN4)C3)[C@H](C)[C@H]12 (stereo partly drawn) | carbapenemase producing K. pneumoniae | µg/mL | 1
C[C@@H](NC(=O)C(F)F)[C@H]1C(=O)N2C(C(=O)O)=C(S[C@@H]3CN[C@H](CNS(=O)(=O)N4CC[C@@H](N)C4)C3)[C@H](C)[C@H]12 | carbapenemase producing K. pneumoniae | µg/mL | 4
CNCC(=O)N[C@H](C)[C@H]1C(=O)N2C(C(=O)O)=C(S[C@@H]3CN[C@H](C(=O)N4CC[C@H](n5ncnn5)C4)C3)[C@H](C)[C@H]12 | carbapenemase producing K. pneumoniae | µg/mL | 4
C[C@@H](NC(=O)Cn1cnnn1)[C@H]1C(=O)N2C(C(=O)O)=C(S[C@@H]3CN[C@H](C(=O)N4C[C@@H](CO)[C@H](N)C4)C3)[C@H](C)[C@H]12 | carbapenemase producing K. pneumoniae | µg/mL | 1

Entry source: patent US11180504B2
